system: Glutamate receptor 2 (Homo sapiens, UniProt P42262)
Sequence (P42262 whole entry, the tested form may be a part): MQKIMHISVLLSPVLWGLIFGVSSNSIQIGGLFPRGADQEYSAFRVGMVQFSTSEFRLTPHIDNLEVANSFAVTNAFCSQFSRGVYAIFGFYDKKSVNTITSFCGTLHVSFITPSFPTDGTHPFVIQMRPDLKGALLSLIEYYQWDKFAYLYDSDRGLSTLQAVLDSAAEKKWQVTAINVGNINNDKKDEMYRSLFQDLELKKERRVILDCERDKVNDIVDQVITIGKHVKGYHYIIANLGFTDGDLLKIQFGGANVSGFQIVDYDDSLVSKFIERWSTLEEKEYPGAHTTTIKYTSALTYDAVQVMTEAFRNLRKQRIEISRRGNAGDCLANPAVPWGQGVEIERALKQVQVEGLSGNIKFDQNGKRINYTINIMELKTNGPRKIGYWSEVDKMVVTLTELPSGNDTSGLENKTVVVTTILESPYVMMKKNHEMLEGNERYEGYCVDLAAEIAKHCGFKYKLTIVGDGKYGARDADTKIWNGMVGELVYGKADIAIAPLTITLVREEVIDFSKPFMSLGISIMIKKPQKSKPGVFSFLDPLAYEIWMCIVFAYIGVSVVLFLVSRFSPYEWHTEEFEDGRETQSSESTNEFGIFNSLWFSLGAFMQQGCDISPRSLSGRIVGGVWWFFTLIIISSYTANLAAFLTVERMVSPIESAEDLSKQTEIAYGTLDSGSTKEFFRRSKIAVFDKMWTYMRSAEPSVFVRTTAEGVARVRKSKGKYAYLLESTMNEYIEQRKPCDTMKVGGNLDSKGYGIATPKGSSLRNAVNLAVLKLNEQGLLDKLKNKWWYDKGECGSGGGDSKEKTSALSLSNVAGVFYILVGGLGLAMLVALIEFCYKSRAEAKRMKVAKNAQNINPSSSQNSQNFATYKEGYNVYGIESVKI
method: Binding affinity to GluA2-LBD-L483Y-N754S complex (unknown origin) by isothermal titration calorimetry
pKd: −log10 of the molar value.

- cpd smiles: "O=S1(=O)NCN(C2CC2)c2ccc(F)cc21"
  pKd: 6.46
- cpd smiles: "CCN1CNS(=O)(=O)c2cnccc21"
  pKd: 2.92

====

Tested on: Primary neuron
method: Potentiation of AMPA receptor in rat embryonic cortex primary neuronal culture assessed as concentration required to 2-fold increase in AMPA-induced membrane depolarization by microplate reader
Assay type: cell membranes
Quick reference for log10 of Activity among some compounds
experimental readout: log10 of Activity (log10 of the value in µM)

- cpd smiles: "O=S1(=O)NCN(C2CC2)c2cc(Cl)ccc21"
  log10 of Activity: 0.72
- cpd smiles: "O=S1(=O)NCN(C2CC2)c2c(Cl)cccc21"
  log10 of Activity: 1.43
- cpd smiles: "O=S1(=O)NCN(C2CC2)c2cccnc21"
  log10 of Activity: -0.46
- cpd smiles: "O=S1(=O)NCN(C2CC2)c2ncccc21"
  log10 of Activity: 1.14
- cpd smiles: "O=S1(=O)NCN(C2CC2)c2ccc(Cl)cc21"
  log10 of Activity: -0.17
- cpd smiles: "O=S1(=O)NCN(C2CC2)c2cccc(Cl)c21"
  log10 of Activity: 0.30
- cpd smiles: "O=S1(=O)NCN(C2CC2)c2ncc(Cl)cc21"
  log10 of Activity: 0.38
- cpd smiles: "O=S1(=O)NCN(C2CC2)c2ccncc21"
  log10 of Activity: 0.64
- cpd smiles: "O=S1(=O)NCN(C2CC2)c2ccc(F)cc21"
  log10 of Activity: -0.57
